- Tested on: Influenza B/Harbin/7/95
- Type: cell-based
- conditionDescription: concentration that inhibited CPE by 50%; MDCK cells, up to 72 hours, MTT
measuredProperty: ID50 B/Harbin/7/95 (ng/mL)
Provide the reading as a plain figure in ng/mL.

Enquiry: Indicate its recorded ID50 B/Harbin/7/95; the compound in question is CC(=O)N[C@H]1[C@H]([C@H](OC(=O)NCCCNC(=O)Cc2ccc(CC(=O)NCCCNC(=O)O[C@@H]([C@@H]3OC(C(=O)O)=C[C@H](NC(=N)N)[C@H]3NC(C)=O)[C@H](O)CO)cc2)[C@H](O)CO)OC(C(=O)O)=C[C@@H]1NC(=N)N
Return: 0.3

Enquiry: Indicate its recorded ID50 B/Harbin/7/95; the compound in question is CC(=O)N[C@H]1[C@H]([C@H](OC(=O)NCCCCCCNC(=O)c2ccccc2C(=O)NCCCCCCNC(=O)O[C@@H]([C@@H]2OC(C(=O)O)=C[C@H](NC(=N)N)[C@H]2NC(C)=O)[C@H](O)CO)[C@H](O)CO)OC(C(=O)O)=C[C@@H]1NC(=N)N
Return: 0.8

Enquiry: Indicate its recorded ID50 B/Harbin/7/95; the compound in question is CC(=O)N[C@H]1[C@H]([C@H](OC(=O)NCCCNC(=O)c2cc(C(=O)O)cc(C(=O)NCCCNC(=O)O[C@@H]([C@@H]3OC(C(=O)O)=C[C@H](NC(=N)N)[C@H]3NC(C)=O)[C@H](O)CO)c2)[C@H](O)CO)OC(C(=O)O)=C[C@@H]1NC(=N)N
Return: 0.3

Enquiry: Indicate its recorded ID50 B/Harbin/7/95; the compound in question is CC(=O)N[C@H]1[C@H]([C@H](OC(=O)NCCCNC(=O)Cc2ccccc2CC(=O)NCCCNC(=O)O[C@@H]([C@@H]2OC(C(=O)O)=C[C@H](NC(=N)N)[C@H]2NC(C)=O)[C@H](O)CO)[C@H](O)CO)OC(C(=O)O)=C[C@@H]1NC(=N)N
Return: 0.3
